target_or_test_system: CYP1A2 (Homo sapiens, UniProt P05177)
Construct: Using HLM as the enzyme source; from tissue; host or cells: human liver microsomes
Sequence (P05177 whole entry): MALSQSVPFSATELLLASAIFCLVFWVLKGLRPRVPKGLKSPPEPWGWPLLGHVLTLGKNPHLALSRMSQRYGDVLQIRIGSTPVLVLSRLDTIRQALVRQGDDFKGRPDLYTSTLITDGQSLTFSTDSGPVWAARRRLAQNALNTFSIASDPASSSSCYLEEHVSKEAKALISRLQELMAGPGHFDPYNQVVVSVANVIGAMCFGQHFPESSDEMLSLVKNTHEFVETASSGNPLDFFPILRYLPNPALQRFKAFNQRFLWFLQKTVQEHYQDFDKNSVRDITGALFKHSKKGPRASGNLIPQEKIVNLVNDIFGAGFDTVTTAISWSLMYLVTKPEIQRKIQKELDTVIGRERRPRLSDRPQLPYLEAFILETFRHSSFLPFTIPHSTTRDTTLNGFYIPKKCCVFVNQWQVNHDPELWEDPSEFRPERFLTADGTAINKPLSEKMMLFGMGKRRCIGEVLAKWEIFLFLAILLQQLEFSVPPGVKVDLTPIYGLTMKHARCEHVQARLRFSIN
procedure_summary: Single concentration Kobs assay (time-dependent inhibition) in HLM
Type: biochemical
condition_info: human, human liver microsomes; single concentration, 30 min; significant if >50%; read-out: 1A2 R_Inh% (reversible inhibition)
Please go through the items and note down their inhibition at 30 min.

{"smiles_entry": "COc1cc(-c2nnn(-c3cc(OC)c(O)c(OC)c3)n2)cc(OC)c1O", "inhibition at 30 min": "< 50%"}

Need inhibition at 30 min for each of these compounds.
1. Oc1ccc(-c2nnn(-c3ccc(O)cc3)n2)cc1
2. Cc1cc(-c2nnn(-c3cc(C)c(O)c(C)c3)n2)cc(C)c1O

1: < 50%; 2: < 50%

====

target_or_test_system: CYP2C9 (Homo sapiens)
Construct: Using HLM as the enzyme source; from tissue; host or cells: human liver microsomes
Sequence (P11712 whole entry): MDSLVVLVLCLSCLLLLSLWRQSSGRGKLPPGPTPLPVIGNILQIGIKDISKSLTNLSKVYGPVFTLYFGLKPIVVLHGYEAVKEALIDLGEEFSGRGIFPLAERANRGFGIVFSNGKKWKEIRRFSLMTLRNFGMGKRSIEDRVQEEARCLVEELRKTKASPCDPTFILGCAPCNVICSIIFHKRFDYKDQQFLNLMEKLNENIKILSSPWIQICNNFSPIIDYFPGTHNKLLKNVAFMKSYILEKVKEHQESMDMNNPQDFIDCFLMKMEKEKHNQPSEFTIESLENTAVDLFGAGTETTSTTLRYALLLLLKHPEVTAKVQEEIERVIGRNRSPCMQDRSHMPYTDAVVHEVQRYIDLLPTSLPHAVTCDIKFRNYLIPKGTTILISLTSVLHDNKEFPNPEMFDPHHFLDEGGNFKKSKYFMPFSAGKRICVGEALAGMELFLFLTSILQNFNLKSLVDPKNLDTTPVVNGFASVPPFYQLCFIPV
procedure_summary: CYP inhibition assay in HLM, single concentration
Type: biochemical
condition_info: human liver microsomes, probe Tolbutamide, n = 3, read-out: % Inhibition (CYP 2C9)
measurement_label: inhibition at 20 min, 10 µM (%)
Give bare numbers, in %.

{"compound": "Oc1ccc(-c2nnn(-c3ccc(O)cc3)n2)cc1 [223-10]", "target_or_test_system": "CYP2C9 (Homo sapiens)", "readout_number": 90}
{"compound": "Cc1cc(-c2nnn(-c3cc(C)c(O)c(C)c3)n2)cc(C)c1O [223-3]", "target_or_test_system": "CYP2C9 (Homo sapiens)", "readout_number": 82}

Request: inhibition at 20 min, 10 µM, test system CYP2C9 (Homo sapiens), entry COc1cc(-c2nnn(-c3cc(OC)c(O)c(OC)c3)n2)cc(OC)c1O [223-2]
68

====

Please go through the items and note down their inhibition at 20 min, 10 µM.
target_or_test_system: CYP2C8 (Homo sapiens, UniProt P10632)
Construct: Using HLM as the enzyme source; from tissue; host or cells: human liver microsomes
Sequence (P10632 1-490): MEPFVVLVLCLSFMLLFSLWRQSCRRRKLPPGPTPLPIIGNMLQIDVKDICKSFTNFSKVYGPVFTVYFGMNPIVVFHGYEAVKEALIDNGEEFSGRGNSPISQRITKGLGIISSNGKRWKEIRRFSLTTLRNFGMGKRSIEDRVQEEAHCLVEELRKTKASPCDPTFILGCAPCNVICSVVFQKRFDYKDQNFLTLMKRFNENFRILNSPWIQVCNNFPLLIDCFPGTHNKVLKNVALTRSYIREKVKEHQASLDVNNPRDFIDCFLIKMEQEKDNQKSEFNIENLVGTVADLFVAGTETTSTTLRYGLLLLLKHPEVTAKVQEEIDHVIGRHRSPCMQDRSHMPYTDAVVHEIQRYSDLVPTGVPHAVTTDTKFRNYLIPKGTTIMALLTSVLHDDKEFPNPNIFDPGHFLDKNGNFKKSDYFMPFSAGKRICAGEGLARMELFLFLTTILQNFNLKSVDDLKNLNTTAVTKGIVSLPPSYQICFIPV
procedure_summary: CYP inhibition assay in HLM, single concentration
Format: biochemical
condition_info: human liver microsomes, probe Amodiaquine, n = 3, read-out: % Inhibition (CYP 2C8)
Excerpt: The regulatory bodies and pharmaceutical firms are quite concerned about CYP inhibition. Therefore, medicinal chemists often change the lead structure to decrease CYP inhibition. If left uncorrected, it can cause DDIs, enhanced drug concentration, and, thus, toxicity. Using HLM as the enzyme source, the CYP inhibition potential was employed to assess the inhibitory effect of the TbB ligands on the CYP1A2, 2B6, 2C8, 2C9, 2C19, and 2D6 3A4 isoforms. […]
Numbers only, in %.

Field: example entries. Status: answers known.
{"smiles_entry": "Cc1cc(-c2nnn(-c3cc(C)c(O)c(C)c3)n2)cc(C)c1O", "units_label": "%", "readout_number": 88}
{"smiles_entry": "COc1cc(-c2nnn(-c3cc(OC)c(O)c(OC)c3)n2)cc(OC)c1O", "units_label": "%", "readout_number": 39}

Now look at this one.
I'd like to know its inhibition at 20 min, 10 µM. The compound in question is Oc1ccc(-c2nnn(-c3ccc(O)cc3)n2)cc1
82

====

Please go through the items and note down their inhibition at 20 min, 10 µM.
target_or_test_system: CYP1A2 (Homo sapiens, UniProt P05177)
Construct: Using HLM as the enzyme source; from tissue; host or cells: human liver microsomes
procedure_summary: CYP inhibition assay in HLM, single concentration
Assay type: biochemical
condition_info: human liver microsomes, probe Phenacetin, n = 3, read-out: % Inhibition (CYP 1A2)
Answers are plain numbers, in %.

{"smiles_entry": "Cc1cc(-c2nnn(-c3cc(C)c(O)c(C)c3)n2)cc(C)c1O", "measurement_label": "inhibition at 20 min, 10 µM", "readout_number": 40}

Need inhibition at 20 min, 10 µM for each of these compounds.
1. COc1cc(-c2nnn(-c3cc(OC)c(O)c(OC)c3)n2)cc(OC)c1O
2. Oc1ccc(-c2nnn(-c3ccc(O)cc3)n2)cc1

33
30

====

procedure_summary: Substrate depletion assay in cryopreserved human hepatocytes (CPHH)
Format: in vitro ADME
condition_info: pooled cryopreserved human hepatocytes, pH 7.3, test conc. 1.0E-06 M (Table S4)
measurement_label: half-life at 1 µM (min)
Answers are plain numbers, in min.

Field: example entries. Status: answers known.
{"smiles_entry": "Oc1ccc(-c2nnn(-c3ccc(O)cc3)n2)cc1", "units_label": "min", "half-life at 1 µM": 36}
{"smiles_entry": "COc1cc(-c2nnn(-c3cc(OC)c(O)c(OC)c3)n2)cc(OC)c1O", "units_label": "min", "half-life at 1 µM": 33}

Now look at this one.
I'd like to know its half-life at 1 µM. The compound in question is Cc1cc(-c2nnn(-c3cc(C)c(O)c(C)c3)n2)cc(C)c1O
54

====

procedure_summary: Substrate depletion assay in human liver microsomes (HLM)
Assay type: in vitro ADME
condition_info: pooled human liver microsomes, pH 7.4, test conc. 1.0E-07 M (Table S4)
measurement_label: half-life at 100 nM (h)
Give bare numbers, in h.

{"molecule": "Cc1cc(-c2nnn(-c3cc(C)c(O)c(C)c3)n2)cc(C)c1O [223-3]", "half-life at 100 nM, h": 1.25}

Need half-life at 100 nM for each of these molecules.
1. COc1cc(-c2nnn(-c3cc(OC)c(O)c(OC)c3)n2)cc(OC)c1O [223-2]
2. Oc1ccc(-c2nnn(-c3ccc(O)cc3)n2)cc1 [223-10]

1. 13.5
2. 3

====

procedure_summary: Substrate depletion assay in human liver microsomes (HLM)
Format: in vitro ADME
condition_info: pooled human liver microsomes, pH 7.4, test conc. 1.0E-07 M (Table S4)
Please go through the items and note down their microsomal CLint at 100 nM.

Field: example entries. Status: answers known.
{"smiles_entry": "COc1cc(-c2nnn(-c3cc(OC)c(O)c(OC)c3)n2)cc(OC)c1O", "measurement_label": "microsomal CLint at 100 nM", "result": "< 116 µL/min/mg"}
{"smiles_entry": "Oc1ccc(-c2nnn(-c3ccc(O)cc3)n2)cc1", "measurement_label": "microsomal CLint at 100 nM", "result": "< 116 µL/min/mg"}

I'd like to know its microsomal CLint at 100 nM. The compound in question is Cc1cc(-c2nnn(-c3cc(C)c(O)c(C)c3)n2)cc(C)c1O
< 116 µL/min/mg

Where do these numbers come from? They come from paper PMC9921896.
